Where do these numbers come from? They come from paper PMC11436758.

# Tested on: S. aureus (MRSA)
# assay_remarks: MIC, clinical and laboratory strains
# Format: cell-based
# reported_conditions: S. aureus (MRSA) 6313
Reported MIC is given for each of the following molecules.
# value in µg/mL; strip the unit string

[
  {
    "molecule": "CC(C)c1cc(Cl)ccc1-c1cc(-c2nnn[nH]2)c(-c2ccc(Cl)cc2C(C)C)s1 [DNM0547]",
    "measured_value": 1
  },
  {
    "molecule": "C/C(=C\\C(=O)OCCCCCCCCC(=O)O)C[C@@H]1OC[C@H](C[C@@H]2O[C@H]2[C@@H](C)[C@H](C)O)[C@@H](O)[C@H]1O [mupirocin]",
    "measured_value": 1
  }
]

MIC in this record for CN[C@H](CC(C)C)C(=O)N[C@H]1C(=O)N[C@@H](CC(N)=O)C(=O)N[C@H]2C(=O)N[C@H]3C(=O)N[C@H](C(=O)N[C@H](C(=O)O)c4cc(O)cc(O)c4-c4cc3ccc4O)[C@H](O)c3ccc(c(Cl)c3)Oc3cc2cc(c3O[C@@H]2O[C@H](CO)[C@@H](O)[C@H](O)[C@H]2O[C@H]2C[C@](C)(N)[C@H](O)[C@H](C)O2)Oc2ccc(cc2Cl)[C@H]1O [vancomycin] : 0.5

====

# Test system: S. aureus (MRSA)
# assay_remarks: MIC, clinical and laboratory strains
# Type: cell-based
# reported_conditions: S. aureus (MRSA) 6501
Reported MIC is given for each of the following compounds.

# example entries with known answers
[
  {
    "compound": "C/C(=C\\C(=O)OCCCCCCCCC(=O)O)C[C@@H]1OC[C@H](C[C@@H]2O[C@H]2[C@@H](C)[C@H](C)O)[C@@H](O)[C@H]1O [mupirocin]",
    "system_tested": "S. aureus (MRSA)",
    "MIC": "1 µg/mL"
  },
  {
    "compound": "CN[C@H](CC(C)C)C(=O)N[C@H]1C(=O)N[C@@H](CC(N)=O)C(=O)N[C@H]2C(=O)N[C@H]3C(=O)N[C@H](C(=O)N[C@H](C(=O)O)c4cc(O)cc(O)c4-c4cc3ccc4O)[C@H](O)c3ccc(c(Cl)c3)Oc3cc2cc(c3O[C@@H]2O[C@H](CO)[C@@H](O)[C@H](O)[C@H]2O[C@H]2C[C@](C)(N)[C@H](O)[C@H](C)O2)Oc2ccc(cc2Cl)[C@H]1O [vancomycin]",
    "system_tested": "S. aureus (MRSA)",
    "MIC": "0.5 µg/mL"
  },
  {
    "compound": "CC(C)c1cc(Cl)ccc1-c1cc(-c2nnn[nH]2)c(-c2ccc(Cl)cc2C(C)C)s1 [DNM0547]",
    "system_tested": "S. aureus (MRSA)",
    "MIC": "2 µg/mL"
  }
]

Please examine the following record next.
MIC in this record for CC[C@H]1OC(=O)[C@H](C)[C@@H](O[C@H]2C[C@@](C)(OC)[C@@H](O)[C@H](C)O2)[C@H](C)[C@@H](O[C@@H]2O[C@H](C)C[C@H](N(C)C)[C@H]2O)[C@](C)(O)C[C@@H](C)C(=O)[C@H](C)[C@@H](O)[C@]1(C)O [erythromycin] : > 16 µg/mL

====

# system_tested: AcpS^F50/50A (Escherichia coli, UniProt P24224, F49A)
# Sequence (P24224 2-126 F49A): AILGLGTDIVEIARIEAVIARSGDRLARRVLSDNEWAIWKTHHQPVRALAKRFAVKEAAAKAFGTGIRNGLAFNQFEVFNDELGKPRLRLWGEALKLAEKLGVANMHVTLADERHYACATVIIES
# assay_remarks: Inhibition of purified AcpS site-directed mutant by DNM0547
observed_property: pIC50
# log scale: pIC50 equals minus log10 of the concentration in mol/L

pIC50 in this record for CC(C)c1cc(Cl)ccc1-c1cc(-c2nnn[nH]2)c(-c2ccc(Cl)cc2C(C)C)s1 : 4.79
